Target: T1, SYCE2 core (amino-acids 57-165) (human, UniProt Q6PIF2 57-165)
T1 construct: SYCE2, human, core, residues 57-165; also called SYCE2 structural core; source: E. coli BL21 (DE3), co-expressed with TEX12, purified (Ni-NTA, amylose, ion exchange, SEC); not shown: MBP, N-terminal, cleaved
T1 sequence (looked up): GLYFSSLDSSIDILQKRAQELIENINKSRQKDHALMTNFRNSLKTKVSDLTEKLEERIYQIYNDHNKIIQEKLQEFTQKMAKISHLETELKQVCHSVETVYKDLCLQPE
Assay: SEC-MALS; co-purified complexes at >1 mg/ml on Superdex 200 Increase 10/300 GL in 20 mM Tris pH 8.0, 150 mM KCl, 2 mM DTT; in Fig. 1 core at 200 uM and full-length at 100 uM (4 mg/ml)
Settings: both partners purified
reported_endpoint: stoichiometry N

{"columns": ["binder", "reported_endpoint", "recorded_measurement"],
 "data": [
  ["TEX12 core ΔCtip (amino-acids 49-113) (domain or fragment, human, UniProt Q9BXU0 49-113, looked up, TEX12, human, core ΔCtip, residues 49-113; source: E. coli BL21 (DE3), co-expressed with SYCE2, purified (Ni-NTA, amylose, ion exchange, SEC); not shown: His6, N-terminal, cleaved) KDEALEKDLNDVSKEINLMLSTYAKLLSERAAVDASYIDEIDELFKEANAIENFLIQKREFLRQR", "stoichiometry N", "1 TEX12 per SYCE2 (2:2)"],
  ["TEX12 core L110E F114E I117E L121E (domain or fragment, human, UniProt Q9BXU0 49-123, looked up, TEX12, human, core, residues 49-123, with L110E, F114E, I117E and L121E; also called LFIL (core); source: E. coli BL21 (DE3), co-expressed with SYCE2, purified (Ni-NTA, amylose, ion exchange, SEC); not shown: His6, N-terminal, cleaved) KDEALEKDLNDVSKEINLMLSTYAKLLSERAAVDASYIDEIDELFKEANAIENFLIQKREFERQRETVEANTEHR", "stoichiometry N", "1 TEX12 per SYCE2 (2:2)"],
  ["TEX12 core (amino-acids 49-123) (domain or fragment, human, UniProt Q9BXU0 49-123, looked up, TEX12, human, core, residues 49-123; also called TEX12 structural core; source: E. coli BL21 (DE3), co-expressed with SYCE2, purified (Ni-NTA, amylose, ion exchange, SEC); not shown: His6, N-terminal, cleaved) KDEALEKDLNDVSKEINLMLSTYAKLLSERAAVDASYIDEIDELFKEANAIENFLIQKREFLRQRFTVIANTLHR", "stoichiometry N", "1 TEX12 per SYCE2 (4:4)"],
  ["TEX12 core F102A F109A V116A (domain or fragment, human, UniProt Q9BXU0 49-123, looked up, TEX12, human, core, residues 49-123, with F102A, F109A and V116A; also called FFV (core); source: E. coli BL21 (DE3), co-expressed with SYCE2, purified (Ni-NTA, amylose, ion exchange, SEC); not shown: His6, N-terminal, cleaved) KDEALEKDLNDVSKEINLMLSTYAKLLSERAAVDASYIDEIDELFKEANAIENALIQKREALRQRFTAIANTLHR", "stoichiometry N", "1 TEX12 per SYCE2 (4:4)"]
]}
